System: HOP-62 multicell spheroids with HUVEC/MSC, viability
Assay method text: Anticancer human tumor HOP-62 cell line growth inhibition [KRAS2];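 also: viability read after a week of compound exposure; 100% = DMSO vehicle-treated spheroids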
Assay setup: second compound 0.1 µM; first compound 0.1 µM; active compounds read low
The threshold is 70%. Values of viability, T/C beneath it are tagged MET; values meeting or exceeding it are tagged NOT MET.

[[record]]
compound = "COc1cc2nccc(Oc3ccc(NC(=O)C4(C(=O)Nc5ccc(F)cc5)CC4)cc3)c2cc1OC + C=CC(=O)N1CCN(c2nc(=O)n(-c3c(C)ccnc3C(C)C)c3nc(-c4c(O)cccc4F)c(F)cc23)C(C)C1"
label_class = "MET"

[[record]]
compound = "CC1OCC2(CCN(c3cnc(Sc4ccnc(N)c4Cl)c(N)n3)CC2)C1N (centres undefined) + CNCc1ccccc1-c1csc(C(C)Nc2nc(C)nc3cc(OC)c(OC)cc23)c1"
label_class = "NOT MET"

[[record]]
compound = "O=C(c1cc(Cc2n[nH]c(=O)c3ccccc23)ccc1F)N1CCN(C(=O)C2CC2)CC1 + C=CC(=O)N1CCN(c2nc(=O)n(-c3c(C)ccnc3C(C)C)c3nc(-c4c(O)cccc4F)c(F)cc23)C(C)C1"
label_class = "MET"

[[record]]
compound = "Cn1ncnc1[C@H]1c2n[nH]c(=O)c3cc(F)cc(c23)N[C@@H]1c1ccc(F)cc1 + C=CC(=O)N1CCN(c2nc(OCC3CCCN3C)nc3c2CCN(c2cccc4cccc(C)c24)C3)CC1CC#N"
label_class = "MET"

[[record]]
compound = "CC1(C)CCC(CN2CCN(c3ccc(C(=O)NS(=O)(=O)c4ccc(NCC5CCOCC5)c([N+](=O)[O-])c4)c(Oc4cnc5[nH]ccc5c4)c3)CC2)=C(c2ccc(Cl)cc2)C1 + C=CC(=O)N1CCN(c2nc(=O)n(-c3c(C)ccnc3C(C)C)c3nc(-c4c(O)cccc4F)c(F)cc23)C(C)C1"
label_class = "MET"

[[record]]
compound = "Cn1nccc1Nc1nccc(-c2cc3c(s2)C(C)(C)N(CCN2CCOCC2)C3=O)n1 + COc1cc2nc(C)nc(NC(C)c3cc(N)cc(C(F)(F)F)c3)c2cc1OC1CCOC1"
label_class = "NOT MET"

[[record]]
compound = "Cn1nccc1Nc1nccc(-c2cc3c(s2)C(C)(C)N(CCN2CCOCC2)C3=O)n1 + C=CC(=O)N1CCN(c2nc(OCC3CCCN3C)nc3c2CCN(c2cccc4cccc(C)c24)C3)CC1CC#N"
label_class = "MET"

[[record]]
compound = "Cn1nccc1Nc1nccc(-c2cc3c(s2)C(C)(C)N(CCN2CCOCC2)C3=O)n1 + CC1OCC2(CCN(c3cnc(Sc4ccnc(N)c4Cl)c(N)n3)CC2)C1N"
label_class = "NOT MET"

[[record]]
compound = "COc1cc2nccc(Oc3ccc(NC(=O)C4(C(=O)Nc5ccc(F)cc5)CC4)cc3)c2cc1OC + CNCc1ccccc1-c1csc(C(C)Nc2nc(C)nc3cc(OC)c(OC)cc23)c1"
label_class = "NOT MET"

[[record]]
compound = "CC1(C)CCC(CN2CCN(c3ccc(C(=O)NS(=O)(=O)c4ccc(NCC5CCOCC5)c([N+](=O)[O-])c4)c(Oc4cnc5[nH]ccc5c4)c3)CC2)=C(c2ccc(Cl)cc2)C1 + COc1cc2nc(C)nc(NC(C)c3cc(N)cc(C(F)(F)F)c3)c2cc1OC1CCOC1"
label_class = "NOT MET"

[[record]]
compound = "CCNC(=O)CC1N=C(c2ccc(Cl)cc2)c2cc(OC)ccc2-n2c(C)nnc21 (centres undefined) + CC1OCC2(CCN(c3cnc(Sc4ccnc(N)c4Cl)c(N)n3)CC2)C1N"
label_class = "NOT MET"

[[record]]
compound = "COc1cc2nccc(Oc3ccc(NC(=O)C4(C(=O)Nc5ccc(F)cc5)CC4)cc3)c2cc1OC + CC1OCC2(CCN(c3cnc(Sc4ccnc(N)c4Cl)c(N)n3)CC2)C1N"
label_class = "NOT MET"


====

Test system: HOP-62 multicell spheroids with HUVEC/MSC, viability
Assay method text: Anticancer human tumor HOP-62 cell line growth inhibition [KRAS2];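 also: viability read after a week of compound exposure; 100% = DMSO vehicle-treated spheroids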
Assay setup: second compound 10 µM; first compound 0.01 µM; active compounds read low
Text: Multicellular complex tumor spheroid response to RAS pathway inhibitors in combination with a targeted agents in patient-derived cell lines with oncogenic KRAS variants from multiple cancer types A high-throughput screen of multi-cell type tumor spheroids was designed to identify active combinations of targeted small molecules and KRAS pathway inhibitors. […] Compounds. […] If the clinical Cmax for an agent had not been determined, the highest concentration tested was 10 microM. […]
Property: viability, T/C (%)

[[record]]
compound = "CCN1CCN(Cc2ccc(Nc3ncc(F)c(-c4cc(F)c5nc(C)n(C(C)C)c5c4)n3)nc2)CC1 + CC1OCC2(CCN(c3cnc(Sc4ccnc(N)c4Cl)c(N)n3)CC2)C1N"
reported_measurement = 27.4

[[record]]
compound = "CC(C)n1nc(-c2ccc3oc(N)nc3c2)c2c(N)ncnc21 + CNCc1ccccc1-c1csc(C(C)Nc2nc(C)nc3cc(OC)c(OC)cc23)c1"
reported_measurement = 0.42

[[record]]
compound = "CCN1CCN(Cc2ccc(Nc3ncc(F)c(-c4cc(F)c5nc(C)n(C(C)C)c5c4)n3)nc2)CC1 + COc1cc2nc(C)nc(NC(C)c3cc(N)cc(C(F)(F)F)c3)c2cc1OC1CCOC1"
reported_measurement = 32.2


====

Tested on: HOP-62 multicell spheroids with HUVEC/MSC, viability
Assay method text: Anticancer human tumor HOP-62 cell line growth inhibition [KRAS2];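 also: viability read after a week of compound exposure; 100% = DMSO vehicle-treated spheroids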
Assay setup: second compound 10 µM; first compound 0.01 µM; active compounds read low
Property: viability, T/C

[[record]]
compound = "CC(C)n1nc(-c2ccc3oc(N)nc3c2)c2c(N)ncnc21 + CC1OCC2(CCN(c3cnc(Sc4ccnc(N)c4Cl)c(N)n3)CC2)C1N"
subject_of_test = "HOP-62 multicell spheroids with HUVEC/MSC, viability"
property = "viability, T/C"
reported_measurement = "7%"

[[record]]
compound = "CC(C)n1nc(-c2ccc3oc(N)nc3c2)c2c(N)ncnc21 + C=CC(=O)N1CCN(c2nc(=O)n(-c3c(C)ccnc3C(C)C)c3nc(-c4c(O)cccc4F)c(F)cc23)C(C)C1"
subject_of_test = "HOP-62 multicell spheroids with HUVEC/MSC, viability"
property = "viability, T/C"
reported_measurement = "16.2%"

[[record]]
compound = "CC(C)n1nc(-c2ccc3oc(N)nc3c2)c2c(N)ncnc21 + COc1cc2nc(C)nc(NC(C)c3cc(N)cc(C(F)(F)F)c3)c2cc1OC1CCOC1"
subject_of_test = "HOP-62 multicell spheroids with HUVEC/MSC, viability"
property = "viability, T/C"
reported_measurement = "14.8%"

[[record]]
compound = "Cn1ncnc1[C@H]1c2n[nH]c(=O)c3cc(F)cc(c23)N[C@@H]1c1ccc(F)cc1 + CC1OCC2(CCN(c3cnc(Sc4ccnc(N)c4Cl)c(N)n3)CC2)C1N"
subject_of_test = "HOP-62 multicell spheroids with HUVEC/MSC, viability"
property = "viability, T/C"
reported_measurement = "27.5%"

[[record]]
compound = "CC1COCCN1c1cc(-c2ccnn2C)c2ccnc(-c3ccn[nH]3)c2n1 (configuration not stated) + COc1cc2nc(C)nc(NC(C)c3cc(N)cc(C(F)(F)F)c3)c2cc1OC1CCOC1"
subject_of_test = "HOP-62 multicell spheroids with HUVEC/MSC, viability"
property = "viability, T/C"
reported_measurement = "52.1%"

[[record]]
compound = "CN(C)C/C=C/C(=O)Nc1cc2c(Nc3ccc(F)c(Cl)c3)ncnc2cc1O[C@H]1CCOC1 + C=CC(=O)N1CCN(c2nc(=O)n(-c3c(C)ccnc3C(C)C)c3nc(-c4c(O)cccc4F)c(F)cc23)C(C)C1"
subject_of_test = "HOP-62 multicell spheroids with HUVEC/MSC, viability"
property = "viability, T/C"
reported_measurement = "52%"

[[record]]
compound = "CC(=O)Nc1cccc(-n2c(=O)n(C3CC3)c(=O)c3c(Nc4ccc(I)cc4F)n(C)c(=O)c(C)c32)c1 + COc1cc2nc(C)nc(NC(C)c3cc(N)cc(C(F)(F)F)c3)c2cc1OC1CCOC1"
subject_of_test = "HOP-62 multicell spheroids with HUVEC/MSC, viability"
property = "viability, T/C"
reported_measurement = "25.3%"


====

Tested on: HOP-62 multicell spheroids with HUVEC/MSC, viability
Assay method text: Anticancer human tumor HOP-62 cell line growth inhibition [KRAS2];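 also: viability read after a week of compound exposure; 100% = DMSO vehicle-treated spheroids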
Assay setup: second compound 0.1 µM; first compound 0.316 µM; active compounds read low
Property: viability, T/C (%)

[[record]]
molecule = "Cn1nccc1Nc1nccc(-c2cc3c(s2)C(C)(C)N(CCN2CCOCC2)C3=O)n1 + C=CC(=O)N1CCN(c2nc(=O)n(-c3c(C)ccnc3C(C)C)c3nc(-c4c(O)cccc4F)c(F)cc23)C(C)C1"
units_label = "%"
reported_measurement = 38.6

[[record]]
molecule = "COc1cc(Nc2ncc3c(n2)-c2ccc(Cl)cc2C(c2c(F)cccc2OC)=NC3)ccc1C(=O)O + COc1cc2nc(C)nc(NC(C)c3cc(N)cc(C(F)(F)F)c3)c2cc1OC1CCOC1"
units_label = "%"
reported_measurement = 43.1

[[record]]
molecule = "CC(C)NCC(C(=O)N1CCN(c2ncnc3c2C(C)CC3O)CC1)c1ccc(Cl)cc1 (stereo not given) + C=CC(=O)N1CCN(c2nc(OCC3CCCN3C)nc3c2CCN(c2cccc4cccc(C)c24)C3)CC1CC#N"
units_label = "%"
reported_measurement = 16.1

[[record]]
molecule = "COc1cc(Nc2ncc3c(n2)-c2ccc(Cl)cc2C(c2c(F)cccc2OC)=NC3)ccc1C(=O)O + CNCc1ccccc1-c1csc(C(C)Nc2nc(C)nc3cc(OC)c(OC)cc23)c1"
units_label = "%"
reported_measurement = 44.5

[[record]]
molecule = "CC(C)NCC(C(=O)N1CCN(c2ncnc3c2C(C)CC3O)CC1)c1ccc(Cl)cc1 (stereo not given) + COc1cc2nc(C)nc(NC(C)c3cc(N)cc(C(F)(F)F)c3)c2cc1OC1CCOC1"
units_label = "%"
reported_measurement = 73

